Reference for the values: PubChem BioAssay (NCI)

Test system: HS 578T breast
Experiment: NCI-60 one-dose screen, 48 h (100 = growth as untreated, 0 = no growth, -100 = all killed)
Conditions: 10 µM unless noted
Experimental: Growth inhibition of the HS 578T human tumor cell line is measured as a screen for anti-cancer activity. Cells are grown in 96 well plates and exposed to the test compound for 48 hours. Compounds are tested at a single concentration, which is 10^-5 M for most compounds. The reported endpoint is percent growth (GI% or GIPRCNT), where numbers from 0 - 100% represent growth inhibition, and numbers from -100% - 0 represent cell death. For example, a value of 40 represents 60% growth inhibition. […]
The panel holds about 83,000 compounds, 20% with a hit somewhere; the sample as a whole holds those more often. Active and inactive are the calls of the source. The calls were made as follows: active = growth percent below 10; inactive = the rest.
Entries and their growth

Take a look at these entries with their results.
{"MOLECULE": "C=C1C(=O)O[C@H]2[C@H]1CC/C(COC(=O)NCc1[nH]nc3ccccc13)=C\\CC[C@@]1(C)O[C@@H]21", "ASSAY RESULT": "62.5% (inactive)"}
{"MOLECULE": "NC(N)=N/N=C/c1ccc(Cl)cc1", "ASSAY RESULT": "75.4% (inactive)"}
{"MOLECULE": "CC(=O)N1N=C(C2C(=O)N(C)C(=O)N(C)C2=O)CC1c1ccccc1C(=O)O (stereo unspecified)", "ASSAY RESULT": "92.1% (inactive)"}

Data request, read-out growth, for C[C@H](NC(=O)c1snnc1C1CC1)c1c(F)cccc1Cl 100% (inactive)

Quick check: growth of CN(C)c1ccc(/C=C\c2cccc[n+]2C)cc1 ? 61.5% (inactive)

Suppose we examine the molecule CCC1N=C(N)N=C(N)N1c1ccc(Cl)cc1 (stereo unspecified) ; what growth value has been reported? 97% (inactive)

Consider the molecule O=[N+]([O-])c1ccc(Sc2nc(Cl)nc(NC3CCCC3)n2)cc1 and give its measured growth. 11.7% [100 µM] (inactive)

Returns the measured growth for the input molecule. Input: Cc1[nH]c2ccccc2c1C1=CC(=O)C=CC1=O 99.7% (inactive)

Which value of growth has been reported for O=C(Nc1cccc(Cl)c1)Nc1ccccc1Cl in the records? 90.7% (inactive)

###

tested on: COLO 205 colon; test: NCI-60 one-dose screen, 48 h; conditions: 10 µM unless noted
The panel holds about 83,000 compounds, 20% with a hit somewhere; the sample as a whole holds those more often. Activity calls are given as the source filed them. The calls were made as follows: active = growth percent below 10; inactive = the rest.
Form entry, call: pick from T = active, F = inactive

{"COMPOUND": "Cc1ccccc1NC(=O)c1sc2nc3c(cc2c1N)C(=O)CCC3", "TARGET DESC": "COLO 205 colon", "CAT": "T"}
{"COMPOUND": "CCNCCCn1c2c(c3ccc(Cl)cc3c1=O)C(=O)c1cc(OC)cnc1-2", "TARGET DESC": "COLO 205 colon", "CAT": "T"}

Would you mind telling me which call this test gave COc1ccc(N=C2CSc3nnc(-c4cc(F)c(Cl)cc4Cl)n3N2)cc1 ? T

Which outcome was assigned to O=C(CCl)Nc1ccc2c(c1)C(=O)c1ccccc1C2=O in this test? T

Dear colleague, could you share the recorded outcome for FC(F)(F)c1cc(-c2nnc3n2N=C(Cl)CS3)cc(C(F)(F)F)c1 when you have a moment? F

Assay result, entry Cc1cc(N)cc(C)c1-c1c(Br)cc(N)cc1Br — outcome? F

Identify the outcome logged in this assay for the compound shown: CN1C(=O)NC(Cc2c[nH]c3c(Cl)cccc23)C1=O (centres undefined) F

Look up the recorded call for COc1ccccc1-[n+]1cc(-c2ccc(-c3ccccc3)cc2)n2c1CCCCC2 in this test. T

Can you look up the reported call for COc1ccc(/C=C/c2nc3ccccc3c(=O)n2-c2ccc(C#Cc3ccc(C(C)(C)C)cc3)cc2C)c(OC)c1 for me? F

###

system: LOX IMVI melanoma; assay: NCI-60 one-dose screen, 48 h; settings: 10 µM unless noted
Compounds without any hit were thinned out: in the full panel of roughly 83,000, 20% have a hit. Calls of active or inactive are those of the source. The calls were made as follows: active = growth percent below 10; inactive = the rest.
The reply should name one outcome from active, inactive

// known answers, use as guide
{"COMPOUND": "COc1cnc2c(c1)C(=O)c1c-2n(CCCN2CCN(C)CC2)c(=O)c2cc(Cl)ccc12", "CAT": "inactive"}
{"COMPOUND": "CCOC(=O)C(CCCCC(NC(C)=O)(C(=O)OCC)C(=O)OCC)(NC(C)=O)C(=O)OCC", "CAT": "inactive"}
{"COMPOUND": "COc1ccccc1-[n+]1cc(-c2ccc(-c3ccccc3)cc2)n2c1CCCCC2", "CAT": "inactive"}
{"COMPOUND": "COc1ccc(C(=O)N2N=C(c3ccc(F)cc3)CC2c2cn(-c3ccccc3)nc2-c2ccccc2)cc1 (stereo not given)", "CAT": "inactive"}
{"COMPOUND": "N/N=C(\\C(=N\\N)c1ccccc1)c1ccccc1", "CAT": "inactive"}
{"COMPOUND": "NNc1ccc(S(N)(=O)=O)cc1", "CAT": "inactive"}

We now examine a further compound.
Per the records of this test, what outcome belongs to CN1C2CCC1/C(=C\c1ccc(Cl)cc1)C(=O)/C2=C/c1ccc(Cl)cc1 ? inactive

###

Known growth of a selection of molecules
test system: BT-549 breast; assay: NCI-60 one-dose screen, 48 h (100 = growth as untreated, 0 = no growth, -100 = all killed); settings: 10 µM unless noted
Compounds without any hit were thinned out: in the full panel of roughly 83,000, 20% have a hit. Active and inactive are the calls of the source. Rule for the calls: active = growth percent below 10; inactive = the rest.

Item: CCn1c(Cc2ccccc2Nc2c(Cl)cccc2Cl)nnc1SCC(=O)Nc1cccc(OC)c1 Test system: BT-549 breast Read-out: growth Value: ? 98.8% (inactive)

Missing value: growth, BT-549 breast, entry Oc1c(C(Nc2ccccc2Br)c2ccccc2)ccc2cccnc12 (configuration not stated) . Fill in? 28.3% (inactive)

###

system: NCI-H226 lung; assay: NCI-60 one-dose screen, 48 h (100 = growth as untreated, 0 = no growth, -100 = all killed); conditions: 10 µM unless noted
The panel holds about 83,000 compounds, 20% with a hit somewhere; the sample as a whole holds those more often.
// values below are reported growth
State the answer as a number, implicitly in %.

{"MOLECULE": "COC(=O)c1ccc2c(c1)nc(-c1cc3ccccc3[nH]c1=O)n2-c1cc(C(C)(C)C)[nH]n1", "VALUE TYPE": "growth", "UNITS OF MEASURE": "%", "ASSAY RESULT": 90.4}
{"MOLECULE": "Cc1c(C(N)=O)sc2ncn(CC(=O)NN=C3CCCCC3)c(=O)c12", "VALUE TYPE": "growth", "UNITS OF MEASURE": "%", "ASSAY RESULT": 96.7}
{"MOLECULE": "O=C(N/N=C\\c1cc(Br)ccc1O)c1ccncc1", "VALUE TYPE": "growth", "UNITS OF MEASURE": "%", "ASSAY RESULT": 39.9}
{"MOLECULE": "NNC(=O)CSc1nc2scc(-c3ccccc3)c2c(=O)n1-c1ccccc1", "VALUE TYPE": "growth", "UNITS OF MEASURE": "%", "ASSAY RESULT": 84}
{"MOLECULE": "O=S(=O)(Cc1ccc(Cl)cc1Cl)c1ccc(Cl)cc1", "VALUE TYPE": "growth", "UNITS OF MEASURE": "%", "ASSAY RESULT": 69.3}

Value lookup for growth; key = CS(=O)(=O)c1ccc(C(=O)N/N=C/c2ccc3c(c2)OCO3)cc1 91.1

Given the molecule COc1ccc(-c2nn(C(=O)NCCN(C)C)cc2-c2ccncc2)cc1Cl , what is its reported growth? 46.4

###

System: 786-0 renal
Experiment: NCI-60 one-dose screen, 48 h (100 = growth as untreated, 0 = no growth, -100 = all killed)
Conditions: 10 µM unless noted
Method: Cells are grown in 96 well plates and exposed to the test compound for 48 hours. Compounds are tested at a single concentration, which is 10^-5 M for most compounds. The reported endpoint is percent growth (GI% or GIPRCNT), where numbers from 0 - 100% represent growth inhibition, and numbers from -100% - 0 represent cell death. For example, a value of 40 represents 60% growth inhibition. A value of 0 means no net growth occurred over the course of the experiment. […]
The panel holds about 83,000 compounds, 20% with a hit somewhere; the sample as a whole holds those more often.
Entries annotated with measured growth
Form entry: value (%) — number only.

{"COMPOUND STRUCTURE STRING": "O=C(CCCN1CCC(O)(c2ccc(Br)cc2)CC1)c1ccc(F)cc1", "UNITS OF MEASURE": "%", "growth": 69}
{"COMPOUND STRUCTURE STRING": "O=S1(=O)NCCCN1CCNc1nccc(-c2c(-c3cccc(O)c3)nc3sccn23)n1", "UNITS OF MEASURE": "%", "growth": 59.3}
{"COMPOUND STRUCTURE STRING": "CN1C2CCC1/C(=C\\c1ccc(Cl)cc1)C(=O)/C2=C/c1ccc(Cl)cc1", "UNITS OF MEASURE": "%", "growth": 75.4}
{"COMPOUND STRUCTURE STRING": "CCNC(=O)c1ccc2c(c1)nc(-c1ccc(Cl)cc1)n2-c1cc(C(C)(C)C)[nH]n1", "UNITS OF MEASURE": "%", "growth": 27.7}

Now look at this one.
Which growth value is on record for O=C(Nc1ccc(Cl)cc1)c1cc(-c2ccc(Cl)cc2)c2sc(=O)[nH]c2n1 ? 6.31
